Biological target: BDDrFVIII (Homo sapiens)
Construct: Deletion of the B domain leads to a less heterogenic, genetically engineered rFVIII that corresponds to the shortest form of pdFVIII (e.g. ˜170 KDa)
Sequence (P00451 with tags, fused parts or gaps DEL765-1658): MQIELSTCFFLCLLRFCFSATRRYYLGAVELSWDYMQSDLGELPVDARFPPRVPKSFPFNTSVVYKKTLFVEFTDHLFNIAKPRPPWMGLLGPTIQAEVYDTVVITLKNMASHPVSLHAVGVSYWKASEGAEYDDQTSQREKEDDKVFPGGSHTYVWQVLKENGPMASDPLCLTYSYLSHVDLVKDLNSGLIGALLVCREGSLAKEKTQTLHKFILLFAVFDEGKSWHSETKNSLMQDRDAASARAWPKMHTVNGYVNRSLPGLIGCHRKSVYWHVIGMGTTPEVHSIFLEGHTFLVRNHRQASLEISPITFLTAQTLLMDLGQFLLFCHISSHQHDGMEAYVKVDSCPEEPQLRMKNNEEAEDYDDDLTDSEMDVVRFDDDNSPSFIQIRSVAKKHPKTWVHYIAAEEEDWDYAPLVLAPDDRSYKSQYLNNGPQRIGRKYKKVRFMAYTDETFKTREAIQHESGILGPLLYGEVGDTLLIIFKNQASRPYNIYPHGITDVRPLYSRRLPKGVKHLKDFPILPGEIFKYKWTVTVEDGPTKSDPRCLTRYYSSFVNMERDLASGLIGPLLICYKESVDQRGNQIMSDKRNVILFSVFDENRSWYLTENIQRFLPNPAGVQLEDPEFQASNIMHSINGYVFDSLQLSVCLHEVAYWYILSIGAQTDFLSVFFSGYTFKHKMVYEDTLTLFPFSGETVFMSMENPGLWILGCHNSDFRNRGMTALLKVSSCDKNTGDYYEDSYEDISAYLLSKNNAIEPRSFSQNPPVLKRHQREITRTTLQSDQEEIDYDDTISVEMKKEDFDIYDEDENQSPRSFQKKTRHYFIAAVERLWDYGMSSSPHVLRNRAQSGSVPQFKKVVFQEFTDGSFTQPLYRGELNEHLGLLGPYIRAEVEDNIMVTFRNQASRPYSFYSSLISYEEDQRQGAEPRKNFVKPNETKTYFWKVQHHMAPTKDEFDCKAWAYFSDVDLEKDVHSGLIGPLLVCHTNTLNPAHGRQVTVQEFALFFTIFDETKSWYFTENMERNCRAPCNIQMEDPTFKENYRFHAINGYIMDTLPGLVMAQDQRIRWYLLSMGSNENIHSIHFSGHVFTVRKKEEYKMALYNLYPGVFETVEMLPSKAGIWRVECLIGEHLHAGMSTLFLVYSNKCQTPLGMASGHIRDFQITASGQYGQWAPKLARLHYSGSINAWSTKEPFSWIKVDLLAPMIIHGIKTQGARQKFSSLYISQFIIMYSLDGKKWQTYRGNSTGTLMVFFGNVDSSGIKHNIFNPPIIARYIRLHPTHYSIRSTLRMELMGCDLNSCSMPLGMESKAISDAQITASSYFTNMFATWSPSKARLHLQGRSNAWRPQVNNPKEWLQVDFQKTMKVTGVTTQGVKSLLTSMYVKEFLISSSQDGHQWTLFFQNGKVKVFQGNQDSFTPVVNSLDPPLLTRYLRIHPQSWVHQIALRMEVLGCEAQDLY
Experiment: Dissociation constant of lipid head group - BDDrFVIII interaction by intrinsic fluorescence
Details: excitation 285 nm, emission 330 nm, protein 3 ug/mL
endpoint_label: pKd
// field semantics: pKd = negative decimal log of concentration (mol/L)

compound	endpoint_label	observed_value
C[N+](C)(C)CCOP(=O)([O-])O [phophocholine, phosphocholine]	pKd	4.62

Given the compound N[C@@H](COP(=O)(O)O)C(=O)O [OPLS, O-phospho-L-serine] , what is its reported pKd?
4.15

Cited source for all entries: patent US7875289B2
